Entries and their pKi
System Under Test: UniProt:Q15554
Sequence (Q15554 whole entry): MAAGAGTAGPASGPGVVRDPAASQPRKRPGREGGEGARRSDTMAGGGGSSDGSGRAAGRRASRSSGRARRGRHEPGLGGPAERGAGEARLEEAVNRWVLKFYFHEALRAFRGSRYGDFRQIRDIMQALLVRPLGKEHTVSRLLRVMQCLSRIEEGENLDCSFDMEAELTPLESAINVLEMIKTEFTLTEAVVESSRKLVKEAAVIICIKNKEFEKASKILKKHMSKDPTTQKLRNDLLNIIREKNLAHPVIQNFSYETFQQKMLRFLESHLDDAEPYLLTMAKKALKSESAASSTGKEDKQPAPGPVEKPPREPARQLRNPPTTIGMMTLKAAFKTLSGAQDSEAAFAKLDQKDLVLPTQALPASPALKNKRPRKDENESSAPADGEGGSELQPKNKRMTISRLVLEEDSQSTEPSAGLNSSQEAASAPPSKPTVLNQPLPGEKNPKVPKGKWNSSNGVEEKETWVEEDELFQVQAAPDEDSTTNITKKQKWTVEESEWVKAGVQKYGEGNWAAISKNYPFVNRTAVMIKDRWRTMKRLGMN
pKi: −log10 of the molar value. Peptide text beside a SMILES is read from it.
Assay Metric: pKi

INSERT INTO measurements (compound, assay_metric, lt_gt_eq, assay_result) VALUES
  ('CC(C)C[C@@H]1NC(=O)[C@@H](NC(=O)[C@@H](N)Cc2ccccc2)CCCCCCC[C@@H](C(=O)N(C)C)NC(=O)[C@@H]2CCCN2C(=O)[C@H](C)NC1=O', 'pKi', '=', 4.38),
  ('CC(=O)N[C@@H](CC(C)C)C(=O)N[C@@H](C)C(=O)N[C@@H](CC(C)C)C(=O)N[C@@H](CCCCN)C(=O)N[C@@H](Cc1ccc(O)cc1)C(=O)N[C@@H](CC(C)C)C(=O)N[C@@H](C)C(=O)N[C@H](C(=O)N1CCC[C@H]1C(=O)N[C@H](C(N)=O)C(C)C)[C@@H](C)O (Ac-LALKYLATPV-NH2)', 'pKi', '<', 4.00);

----------
System Under Test: Telomeric repeat-binding factor 2 (Homo sapiens)
Sequence (Q15554 whole entry): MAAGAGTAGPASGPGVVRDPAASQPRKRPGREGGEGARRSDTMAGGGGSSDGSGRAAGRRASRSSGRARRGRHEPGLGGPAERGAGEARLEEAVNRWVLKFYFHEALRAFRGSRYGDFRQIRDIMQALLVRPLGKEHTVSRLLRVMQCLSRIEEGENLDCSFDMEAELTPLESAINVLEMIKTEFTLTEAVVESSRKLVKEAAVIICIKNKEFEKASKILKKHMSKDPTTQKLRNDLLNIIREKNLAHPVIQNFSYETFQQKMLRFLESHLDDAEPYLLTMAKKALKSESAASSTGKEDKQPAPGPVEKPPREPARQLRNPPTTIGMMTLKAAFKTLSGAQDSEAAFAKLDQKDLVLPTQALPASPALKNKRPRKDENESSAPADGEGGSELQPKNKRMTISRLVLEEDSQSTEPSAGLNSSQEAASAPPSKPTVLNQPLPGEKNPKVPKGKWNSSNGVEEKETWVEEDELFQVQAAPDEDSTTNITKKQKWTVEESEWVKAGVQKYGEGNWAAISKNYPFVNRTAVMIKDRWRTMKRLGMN
Peptide text beside a SMILES is read from it.
Assay Metric: Ki (µM)

INSERT INTO results (compound, assay_result) VALUES
  ('CC(=O)N[C@@H](CC(C)C)C(=O)N[C@@H](C)C(=O)N[C@@H](CC(C)C)C(=O)N[C@@H](C)C(=O)N[C@@H](Cc1ccc(O)cc1)C(=O)N[C@@H](CC(C)C)C(=O)N[C@@H](CC(C)C)C(=O)N[C@H](C(=O)N1CCC[C@H]1C(=O)N[C@H](C(N)=O)C(C)C)[C@@H](C)O (Ac-LALAYLLTPV-NH2)', 3.2),
  ('CC(=O)N[C@@H](CC(C)C)C(=O)N[C@@H](C)C(=O)N[C@@H](CC(C)C)C(=O)N[C@@H](CCCCN)C(=O)N[C@@H](Cc1ccc(O)cc1)C(=O)N[C@@H](CC(C)C)C(=O)N[C@H](C(=O)N[C@H](C(=O)N1CCC[C@H]1C(=O)N[C@H](C(N)=O)C(C)C)[C@@H](C)O)C(C)C (Ac-LALKYLVTPV-NH2)', 61.2),
  ('CC(C)C[C@@H]1NC(=O)[C@@H](NC(=O)[C@H](Cc2ccc(O)cc2)NC(=O)[C@@H](N)CCCCN)CCCCCCC[C@@H](C(=O)N(C)C)NC(=O)[C@@H]2CCCN2C(=O)[C@H](C)NC1=O', 18.4),
  ('CC(C)C[C@@H]1NC(=O)[C@@H](NC(=O)[C@@H](N)Cc2ccc(O)cc2)CCCCCCC[C@@H](C(=O)N(C)C)NC(=O)[C@@H]2CCCN2C(=O)[C@H](C)NC1=O', 58.2);
